- assay.system: T1, Human TIGIT protein with HIS tag (human, UniProt Q495A1 22-141)
- T1 construct: A soluble analyte is probably only the extracellular part; also called human TIGIT recombinant protein; not shown: HIS tag
- T1 sequence: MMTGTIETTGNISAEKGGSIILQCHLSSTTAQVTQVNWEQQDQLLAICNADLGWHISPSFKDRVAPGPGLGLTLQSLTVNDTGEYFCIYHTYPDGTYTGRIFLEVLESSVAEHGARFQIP
- assay.details: SPR Biacore T200; antibody Fc-captured, TIGIT-His analyte
test.readout: Kd (nM)
The response must be a number in nM with no trailing unit.

// Kd lookup, key: 64G1E9B4VH1_VL1.M1 (antibody, human IgG1, V domains shown, Humanized antibody, variable domains fused with the constant region of human IgG1; also called 64G1VH1_VL1.M1) VH: EVQLVQSGAEVKKPGSSVKVSCKASGYTFTEHVIHWVRQAPGQGLEWMGGFNPNHDGTIYNQIFRGRVTITADKSTSTAYMELSSLRSEDTAVYYCARAAKLLFAMDYWGQGTTVTVSS VL: DIQMTQSPSSLSASVGDRVTITCRASQHVSNAVVWYQQKPGKAPKLLIYSPSYRFTGVPSRFSGSGSGTDFTLTISSLQPEDFATYYCQQHYSTPWTFGGGTKVEIK
0.15
